The measured values listed here are drawn from patent US20190153103A1.

- study target: T1, cynomolgus BMPR1B overexpressed on the surface of HEK293T cells (N-terminal Asp-Lys epitope tag, … (cynomolgus))
- T1 construct: whole, on cells
- test name: flow cytometry
observation type: gMFI
Reply briefly: the number, and no unit.

| binder | observed measurement |
| --- | --- |
| SC91.111 (antibody, V domains shown, copies: 2 + 2) VH: QIQLVQSGPELKKPGETVKISCKASGYTLTTYGMNWVKQAPGKGLKWMGWINTYSGVPAYADDFKGRFAFSLETSASTAYLQINNFKNEDTATYFCARSELRNWYFDVWGTGTTVTVSS VL: SFVMTQTPKFLLVSAGDRVTITCKASQNMGHNVAWYQQKPGQSPKLLIYYASNRYTGVPDRFTGSGYGTDFTFTISTVQAEDLAVYFCQQDYSSPFTFGSGTKLEIK | 9120 |
| SC91.187 (antibody, V domains shown) VH: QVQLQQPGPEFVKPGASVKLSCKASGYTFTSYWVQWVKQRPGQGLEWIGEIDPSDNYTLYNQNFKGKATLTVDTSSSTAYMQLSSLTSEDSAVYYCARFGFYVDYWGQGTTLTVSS VL: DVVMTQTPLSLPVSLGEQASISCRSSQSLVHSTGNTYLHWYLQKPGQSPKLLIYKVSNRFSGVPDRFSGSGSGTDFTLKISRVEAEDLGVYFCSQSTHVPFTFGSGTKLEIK | 14800 |
| SC91.172 (antibody, V domains shown) VH: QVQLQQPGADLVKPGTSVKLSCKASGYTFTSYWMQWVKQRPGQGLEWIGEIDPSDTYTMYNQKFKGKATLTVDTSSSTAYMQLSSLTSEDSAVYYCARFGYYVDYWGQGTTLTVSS VL: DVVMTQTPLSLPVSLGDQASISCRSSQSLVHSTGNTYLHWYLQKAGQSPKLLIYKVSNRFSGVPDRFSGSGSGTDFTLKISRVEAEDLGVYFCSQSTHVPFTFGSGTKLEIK | 15000 |
| SC91.129 (antibody, V domains shown, copies: 2 + 2) VH: QVQLQQPGAELVKPGASVKLSCKASGYTFTNYWMQWVKQRPGQGLEWIGEIDPSDRYTLYNQKFKDKATLTVDTSSSTAYMQLSSLTSEDSAVYYCARFGYYVDYWGQGTTLTVSS VL: DAVMTQSPLSLPVSLGDQASISCRSSQSLVHSTGNTYLHWYLQKPGQSPKLLIYKVSNRFSGVPDRFSGSGSGTDFTLKISRVEAEDLGVYFCSQTTHVPFTFGSGTKLEIK | 16000 |
| SC91.160 (antibody, V domains shown) VH: QIQLVQSGPELKKPGETVKISCKASGYTFTTYGMNWVKQAPGKGLKWMGWINTYSGVPSSADDFKGRFAFSLETSASTAYLLINNLKNEDTATYFCARSELRNWYFDVWGTGTTVTVSS VL: SFVMTQTPKFLLVSAGDRVTITCKASQNMGHDVAWYQQKPGQSPKLLIYSASNRYTGVPDRFTGSGYGTDFTFTISTVQAEDLAVYFCQQDYSSPFTFGSGTKLEMK | 15800 |

Query :: Can you look up the measured gMFI of SC91.155 (antibody, V domains shown) VH: QIQLVQSGPELKKPGETVKISCKASGYTFTTYGMNWVKQAPGKGLKWMGWINSYSGVPAYADDFKGRFAFSLETFASTAYLQINNLRDEDTATYFCARSELRNWYFDVWGTGTTVTVSS VL: SFVMTQTPKFLLVSAGDRVTITCKASQNLGNDVAWYQQKPGQSPRLLIYFASNRYTGVPDRFTGSGYGTDFTFTISTVQAEDLAVYFCQQDYSSPFTFGSGTKLEIK for me?
Result :: 14600

Query :: Another binder to look at: SC91.149 (antibody, V domains shown) VH: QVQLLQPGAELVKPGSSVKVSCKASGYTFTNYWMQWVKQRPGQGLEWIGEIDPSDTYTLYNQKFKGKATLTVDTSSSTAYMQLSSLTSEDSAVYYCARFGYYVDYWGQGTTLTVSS VL: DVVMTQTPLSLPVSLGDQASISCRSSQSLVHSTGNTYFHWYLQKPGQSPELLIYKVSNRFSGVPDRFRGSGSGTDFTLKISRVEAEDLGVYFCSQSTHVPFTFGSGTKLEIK
Result :: 15400
